Test system: DENV serotype 2
Experiment summary: GOViRA (graphene oxide-based viral RNA analysis) fluorescence antiviral assay / drug library screening in Vero E6 cells
Format: cell-based, dengue virus
Recorded conditions: Dengue virus, Vero C1008; DENV-infected Vero E6 cells; concentrations 6.25 μM to 400 μM; PNA-DRGON complex after 48 hours; read-out: EC50 value for DENV serotype 2 (GOViRA system)
Measured metric: pEC50
Schema: pEC50 number; meaning minus log10 of the concentration expressed in molar units.

Request: Would you kindly share the measured pEC50 for `NC(=O)c1ncn([C@@H]2O[C@H](CO)[C@@H](O)[C@H]2O)n1` ?
Response: 4.31

Every entry's value here was drawn from patent US12551494B2.
